TARGET_OF_ASSAY: Cytochrome P450 2C19 (Homo sapiens)
TEST_SUMMARY: Cytochrome panel assay with activity outcomes
PARTICULARS: recombinant CYP, pro-luciferin dealkylation, luminescence, p450-cyp2c19; series mostly up to 57.1 µM
Out of some 16,000 compounds screened, about 5,800 (36%) were called active. Another 23% or so got no clear call; they are omitted. Calls follow the shape of the dose curve; as a rule, active = well fitted curve in the direction sought with a large enough effect; inconclusive = small, poorly fitted or top-dose-only effect, or effect the other way; inactive = no such curve, though single readings can be large or run the other way. This is one part of the list. Peptide text beside a SMILES is read from it. * marks the point of attachment. PhAc = O=C(Cc1ccccc1)*; OBn = c1ccc(CO*)cc1
Assign a class; possible classes are TRUE = active, FALSE = inactive

Study these solved cases before continuing.
[
  {
    "MOLECULE": "CCNc1ncc2nc(-c3ccccc3)c(=O)n(C)c2n1",
    "ASSIGNED_CLASS": "FALSE"
  },
  {
    "MOLECULE": "COc1ccc2[nH]cc(CCNc3cc(-c4ccccc4C)ncn3)c2c1",
    "ASSIGNED_CLASS": "TRUE"
  },
  {
    "MOLECULE": "COc1ccc(C(=O)c2c[nH]c(C(=O)NCc3cccs3)c2)cc1",
    "ASSIGNED_CLASS": "FALSE"
  },
  {
    "MOLECULE": "COC(=O)C(CCSC)NC(=O)c1cccc([N+](=O)[O-])c1 (stereo unspecified)",
    "ASSIGNED_CLASS": "TRUE"
  },
  {
    "MOLECULE": "O=C(CNC(=O)Cc1ccccc1)NCC(=O)OCc1ccccc1 (PhAc-Gly-Gly-OBn)",
    "ASSIGNED_CLASS": "FALSE"
  },
  {
    "MOLECULE": "CCN(CC)C(=O)CSc1nc(O)cc(=O)n1CC",
    "ASSIGNED_CLASS": "FALSE"
  },
  {
    "MOLECULE": "O=C(CNC(=O)c1cccs1)NCC(=O)OCc1ccc(Cl)cc1",
    "ASSIGNED_CLASS": "TRUE"
  },
  {
    "MOLECULE": "Cc1cc(=O)[nH]c(-n2[nH]c3c(c2=O)CCCC3)n1",
    "ASSIGNED_CLASS": "FALSE"
  }
]

Query molecule follows.
Which outcome did this test record for the molecule Cc1ccc(C(=O)c2cn[nH]c2-c2cc(Cl)ccc2O)cc1 ?
TRUE

###

TARGET_OF_ASSAY: Cytochrome P450 2C19 (Homo sapiens)
TEST_SUMMARY: Cytochrome panel assay with activity outcomes
PARTICULARS: recombinant CYP, pro-luciferin dealkylation, luminescence, p450-cyp2c19; series mostly up to 57.1 µM
Out of some 16,000 compounds screened, about 5,800 (36%) were called active. Roughly 23% stayed inconclusive and do not appear here. Calls follow the shape of the dose curve; as a rule, active = well fitted curve in the direction sought with a large enough effect; inconclusive = small, poorly fitted or top-dose-only effect, or effect the other way; inactive = no such curve, though single readings can be large or run the other way. The list shows a part of the results.
Assign a class; possible classes are Yes = active, No = inactive

[
  {
    "QUERY_SMILES": "CCOc1ccc(-n2c(SCC(=O)Nc3ccccc3C)n[nH]c2=O)cc1",
    "ASSIGNED_CLASS": "Yes"
  },
  {
    "QUERY_SMILES": "O=C(NCCc1c[nH]c2ccccc12)[C@H]1C[C@@H]1[C@H](NP(=O)(c1ccccc1)c1ccccc1)c1ccccc1",
    "ASSIGNED_CLASS": "Yes"
  },
  {
    "QUERY_SMILES": "O=C(NCCc1c[nH]c2ccccc12)[C@@H]1C[C@H]1[C@@H](NP(=O)(c1ccccc1)c1ccccc1)c1ccccc1",
    "ASSIGNED_CLASS": "Yes"
  }
]

Query compound follows.
Which outcome did this test record for the compound Cc1cc(CNC(=O)[C@H]2C[C@@H]2[C@H](NP(=O)(c2ccccc2)c2ccccc2)c2ccccc2)nn1C ?
No
